System: HCC1937
Test: relative cell viability, compound + RSL3, vs DMSO (fraction of DMSO control); higher = less growth inhibition
Details: 72 h
Answer each item with its documented relative cell viability.
Keep it simple and answer with nothing but the number.

Determine from records and report relative cell viability for C[C@@H]1O[C@@H](O[C@H]2[C@H](Oc3cc(O)c4c(c3)O[C@H](c3ccc(O)cc3)CC4=O)O[C@H](CO)[C@@H](O)[C@@H]2O)[C@H](O)[C@H](O)[C@H]1O [Naringin] + COC(=O)c1ccc([C@H]2c3[nH]c4ccccc4c3C[C@H](C(=O)OC)N2C(=O)CCl)cc1 0.949

Given the compound C[N+](C)(C)CC(O)CC(=O)[O-] (stereo not drawn) [L(-)-Carnitine] + COC(=O)c1ccc([C@H]2c3[nH]c4ccccc4c3C[C@H](C(=O)OC)N2C(=O)CCl)cc1 , write its reported relative cell viability. 0.621

Give the measured relative cell viability for OC[C@H]1O[C@@H](Oc2cc(O)cc(/C=C/c3ccc(O)cc3)c2)[C@H](O)[C@@H](O)[C@@H]1O [Polydatin] + COC(=O)c1ccc([C@H]2c3[nH]c4ccccc4c3C[C@H](C(=O)OC)N2C(=O)CCl)cc1 0.749

Give the reported value of relative cell viability for this record: O=C1c2cc(CO)cc(O)c2C(=O)c2c(O[C@@H]3O[C@H](CO)[C@@H](O)[C@H](O)[C@H]3O)cccc21 [Aloe-emodin-8-O-beta-D-glucopyranoside] + COC(=O)c1ccc([C@H]2c3[nH]c4ccccc4c3C[C@H](C(=O)OC)N2C(=O)CCl)cc1 0.368

Read off the recorded relative cell viability for CCC(CC)CC1(C(=O)Nc2ccccc2SC(=O)C(C)C)CCCCC1 [Dalcetrapib] + COC(=O)c1ccc([C@H]2c3[nH]c4ccccc4c3C[C@H](C(=O)OC)N2C(=O)CCl)cc1 0.654

Look up relative cell viability of CCCCCCS(=O)(=O)NC(=O)c1ccc(CSCc2ccc(-c3ccccc3)cc2)cc1 + COC(=O)c1ccc([C@H]2c3[nH]c4ccccc4c3C[C@H](C(=O)OC)N2C(=O)CCl)cc1 and report it. 0.403

Let me know recorded relative cell viability for O=C(Nc1ccc(C(O)(C(F)(F)F)C(F)(F)F)cc1)c1ccc(C(F)(F)F)cc1 + COC(=O)c1ccc([C@H]2c3[nH]c4ccccc4c3C[C@H](C(=O)OC)N2C(=O)CCl)cc1 , thanks. 0.264

# return recorded relative cell viability for input CC1(C)CC[C@]2(C(=O)O[C@@H]3O[C@H](CO)[C@@H](O)[C@H](O)[C@H]3O)CC[C@]3(C)C(=CC[C@@H]4[C@@]5(C)CC[C@H](O[C@@H]6O[C@H](C(=O)O)[C@@H](O)[C@H](O)[C@H]6O[C@@H]6O[C@H](CO)[C@@H](O)[C@H](O)[C@H]6O)C(C)(C)[C@@H]5CC[C@]43C)[C@@H]2C1 [Ginsenoside Ro] + COC(=O)c1ccc([C@H]2c3[nH]c4ccccc4c3C[C@H](C(=O)OC)N2C(=O)CCl)cc1 0.375

In one line, give reported relative cell viability of the entry N[C@@H](Cc1c[nH]cn1)C(=O)O [histidine] + COC(=O)c1ccc([C@H]2c3[nH]c4ccccc4c3C[C@H](C(=O)OC)N2C(=O)CCl)cc1 . 0.622

###

Test system: MDA-MB-231
Assay: relative cell viability, compound alone, vs DMSO (fraction of DMSO control); higher = less growth inhibition
Settings: 72 h
Counter-ions that a name gives are not always drawn.
Mark Criterion met for relative cell viability under 0.9, Criterion not met if at or over.

Is relative cell viability of C[C@H](CCOc1cccc(CC(=O)O)c1)N(Cc1cccc(C(F)(F)F)c1Cl)CC(c1ccccc1)c1ccccc1 [RGX-104 free Acid] strictly below 0.9? Criterion met

Determine if CC(C)(O)[C@@H]1Cc2cc3ccc(=O)oc3cc2O1 [marmesin] shows relative cell viability strictly lower than 0.9. Criterion met

Is 0.9 strictly greater than the compound's reported relative cell viability? compound: O=C1c2cc(CO)cc(O)c2C(=O)c2c(O[C@@H]3O[C@H](CO)[C@@H](O)[C@H](O)[C@H]3O)cccc21 [Aloe-emodin-8-O-beta-D-glucopyranoside] Criterion met

Hello, is relative cell viability of the following compound strictly smaller than 0.9? C[C@H]1N=C(N(C)C)N=C(N)N1 [Imeglimin hydrochloride] Criterion met

Criterion: relative cell viability strictly below 0.9. Is it met by CCCc1cc(-c2nc(-c3ccc(C)cc3)cs2)ccn1 [Fatostatin] ? Criterion met

is_below(relative cell viability, 0.9) for CC(=O)O[C@H](CC=C(C)C)C1=CC(=O)c2c(O)ccc(O)c2C1=O [Acetyl shikonin] ? Criterion not met

Is 0.9 strictly greater than the compound's reported relative cell viability? compound: CCCCCCCCCCCCCCOc1ccc(C(=O)OCC(=O)N(C)CC(=O)OCC)o1 [Olumacostat Glasaretil] Criterion met

Dear reviewer, please state whether CC(C)(Oc1ccc(Cl)cc1)C(=O)O [Clofibric acid] has relative cell viability strictly beneath 0.9. Criterion met

Would you kindly verify if relative cell viability of CC(C)=CCC(O)C1=CC(=O)c2c(O)ccc(O)c2C1=O (single isomer, unassigned; (+)) [(+)-Shikonin] is strictly less than 0.9? Criterion met

Does CCCCCC=CC(=O)CCc1ccc(O)c(OC)c1 [6-Shogaol] have relative cell viability strictly under 0.9? Criterion not met

Please determine if CCCCCCCCCCCCC/C=C/[C@@H](O)[C@@H](N)CO is below 0.9 in terms of relative cell viability. Criterion met

Hi there! Is relative cell viability for O=C(NC1CCN(CCCCC2(C(=O)NCC(F)(F)F)c3ccccc3-c3ccccc32)CC1)c1ccccc1-c1ccc(C(F)(F)F)cc1 [Lomitapide] below 0.9, do you know? Criterion met

# strict comparison: is reported relative cell viability < 0.9? input = CC1CC(OC(=O)C(O)c2ccccc2)CC(C)(C)C1 (configuration not stated) [Cyclandelate] Criterion met

###

Tested on: MDA-MB-231;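 also: viability read out with the CCK-8 kit in 96-well plates, screening a set of 303 compounds acting on lipid metabolism targets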
Test: relative cell viability, compound alone, vs DMSO (fraction of DMSO control); higher = less growth inhibition
Conditions: 72 h
Where a name gives a salt, the structure may show the parent alone.
Classes are defined on relative cell viability with ranges Low: < 0.8; Mid: ≥ 0.8 and < 0.9; High: ≥ 0.9

Exam item: assign CCN(CC)c1ccc(C=NNC(=O)c2ccncc2)c(O)c1 to the correct category. Low

Input COc1ccc(-c2coc3cc(O)cc(O)c3c2=O)cc1 [Biochanin A] ; output its category Low

For CC(C)c1nc(N(C)S(C)(=O)=O)nc(-c2ccc(F)cc2)c1/C=C/[C@@H](O)C[C@@H](O)CC(=O)O [Rosuvastatin] , which relative cell viability bin applies? Mid

Lab log: Cc1nc2ccc(C(=O)N3CCC4(CC3)CC(=O)c3c(cnn3C(C)C)C4)cc2[nH]1 — assign relative cell viability category Mid

// bin(item) where item = CS(=O)(=O)c1ccc(-c2nnc(/C=C/c3nnc(-c4ccc(C#N)cc4)o3)n2-c2ccccc2Cl)nc1 Mid

Hey, which category is CN(C)C(=N)NC(=N)N [Metformin hydrochloride] in, do you know? High

Field: class (relative cell viability) — entry: CCCc1c(-c2ccccc2)[nH]n(-c2ccccn2)c1=O [APX-115 free base] Mid

State the class of the molecule shown: CCOC(=O)c1c(NC(=O)CN2CCN(C(=O)c3ccco3)CC2)sc2c1CCC2 High

Each molecule maps to one class by relative cell viability. Which class for CN(C(=O)n1cnc(-c2ccc[n+]([O-])c2)c1)C1CCCCC1 ? High

Assign a bin to O=C(Nc1ccc(C(O)(C(F)(F)F)C(F)(F)F)cc1)c1ccc(C(F)(F)F)cc1 Low

Class (by measured relative cell viability) for O=C(Nc1ccncc1)c1cc([N+](=O)[O-])ccc1Cl Mid

Lab note: sort C/C=C(\CC[C@@H](C)[C@H]1CC[C@H]2[C@@H]3CC=C4C[C@@H](O)CC[C@]4(C)[C@H]3CC[C@]12C)C(C)C [Fucosterol] into the matching relative cell viability band. High

Which bin, given its relative cell viability, does O=C(c1ccc(NS(=O)(=O)c2cccc3cccnc23)cc1)N1CCN(CC2CC2)CC1 [Mitapivat] occupy? High

Assign a category based on measured relative cell viability for CCC(CC)CC1(C(=O)Nc2ccccc2SC(=O)C(C)C)CCCCC1 [Dalcetrapib] and give only the class name. High

###

System: HCC1937;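 also: breast cancer cell viability read out with the CCK-8 kit after co-treatment of each compound with the ferroptosis inducer RSL3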
Assay: relative cell viability, compound + RSL3, vs DMSO (fraction of DMSO control); higher = less growth inhibition
Settings: 72 h
What relative cell viability was measured for each of the following?
Keep it simple and answer with nothing but the number.

Please report the measured relative cell viability for CCC(C)(Oc1ccc(C2(c3ccc(OC(C)(CC)C(=O)O)cc3)CCCCC2)cc1)C(=O)O (centres undefined) [Clinofibrate] + COC(=O)c1ccc([C@H]2c3[nH]c4ccccc4c3C[C@H](C(=O)OC)N2C(=O)CCl)cc1 [RSL3] 0.561

Recall and state the measured relative cell viability for COC(=O)CN(c1ccc(CN(c2ccc(OCc3ccc(C)cc3)c(C(=O)OC)c2)S(=O)(=O)Cc2ccccc2)cc1)S(C)(=O)=O + COC(=O)c1ccc([C@H]2c3[nH]c4ccccc4c3C[C@H](C(=O)OC)N2C(=O)CCl)cc1 [RSL3] . 0.538

Answer with reported relative cell viability of COc1cccc(-n2c(=O)[nH]c3cc(Cl)n(-c4ccc(-c5cccc(OC)c5O)cc4)c3c2=O)c1 + COC(=O)c1ccc([C@H]2c3[nH]c4ccccc4c3C[C@H](C(=O)OC)N2C(=O)CCl)cc1 [RSL3] 0.395

Give reported relative cell viability value for C=C(C)[C@@H]1CC[C@]2(CO)CC[C@]3(C)[C@H](CC[C@@H]4[C@@]5(C)CC[C@H](O)C(C)(C)[C@@H]5CC[C@]43C)[C@@H]12 [Betulin] + COC(=O)c1ccc([C@H]2c3[nH]c4ccccc4c3C[C@H](C(=O)OC)N2C(=O)CCl)cc1 [RSL3] 0.619
